# TARGET UNDER TEST: Vasopressin V2 receptor (Homo sapiens)
# Sequence (P30518 whole entry): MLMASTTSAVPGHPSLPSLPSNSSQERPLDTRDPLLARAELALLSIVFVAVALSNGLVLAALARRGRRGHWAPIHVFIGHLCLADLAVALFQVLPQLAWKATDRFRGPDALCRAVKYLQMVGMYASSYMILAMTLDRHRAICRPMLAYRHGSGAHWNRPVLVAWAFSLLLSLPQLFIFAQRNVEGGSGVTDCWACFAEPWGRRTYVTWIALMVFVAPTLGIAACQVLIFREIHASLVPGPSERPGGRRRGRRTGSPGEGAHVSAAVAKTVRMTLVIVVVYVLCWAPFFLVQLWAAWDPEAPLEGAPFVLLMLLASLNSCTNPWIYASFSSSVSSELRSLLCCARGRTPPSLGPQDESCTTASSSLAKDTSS
# METHOD NOTES: Antagonist activity at human cloned vasopressin V2 receptor by cell based beta-lactamase reporter gene assay
MEASURE: Ki (nM)

{"SMILES REPRESENTATION": "CCN(C(=O)c1cnc(-c2cccc(C)c2C)cn1)c1ccc(OC)nc1", "Ki (nM)": 2830}

[1] COCCN(C(=O)c1cnc(-c2cccc(C)c2C)cn1)c1ccc(OC)nc1
[2] CCN(C(=O)c1cnc(-c2cccc(F)c2C)cn1)c1ccc(OC)nc1
Ask: Pick the one with the larger Ki: 1 vs 2 // caller expects the label of the chosen entry
Result: 1
(1: 2400 nM, 2: 343 nM)

* * *

# TARGET UNDER TEST: Oxytocin receptor (Homo sapiens)
# Sequence (P30559 whole entry): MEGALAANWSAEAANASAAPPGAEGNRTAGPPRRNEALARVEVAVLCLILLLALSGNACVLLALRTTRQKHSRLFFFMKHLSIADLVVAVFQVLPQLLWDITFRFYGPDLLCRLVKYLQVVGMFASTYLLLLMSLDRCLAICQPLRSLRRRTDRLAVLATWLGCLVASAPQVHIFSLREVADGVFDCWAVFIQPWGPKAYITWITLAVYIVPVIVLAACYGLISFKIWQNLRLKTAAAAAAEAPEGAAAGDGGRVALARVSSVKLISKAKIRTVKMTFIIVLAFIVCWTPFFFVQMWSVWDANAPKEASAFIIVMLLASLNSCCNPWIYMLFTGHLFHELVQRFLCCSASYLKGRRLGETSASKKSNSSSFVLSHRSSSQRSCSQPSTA
# METHOD NOTES: Antagonist activity at human cloned OT receptor by cell based beta-lactamase reporter gene assay
MEASURE: Ki (µM)

// solved cases for Ki follow
{"SMILES REPRESENTATION": "COCCN(C(=O)c1cnc(-c2ccccc2C)cn1)c1ccc(OC)nc1", "Ki [µM]": 0.115}
{"SMILES REPRESENTATION": "CCN(C(=O)c1ccc(-c2ccccc2)[nH]c1=O)c1ccc(OC)nc1", "Ki [µM]": 0.097}
{"SMILES REPRESENTATION": "CCN(C(=O)c1cnc(-c2cccc(C)c2C)cn1)c1ccc(OC)nc1", "Ki [µM]": 0.025}
{"SMILES REPRESENTATION": "CCN(C(=O)c1cnn(-c2ccccc2)c1C)c1ccc(OC)nc1", "Ki [µM]": 0.085}
{"SMILES REPRESENTATION": "CCN(C(=O)COc1ccc(C(C)C)cc1)c1ccc(OC)nc1", "Ki [µM]": 0.251}

[a] COc1ccc(N(C)C(=O)c2ccc(-c3ccccc3)cc2)cn1
[b] COc1ccc2oc(C(=O)N(C)c3ccc(OC)nc3)cc2c1
[c] CCN(C(=O)c1cc(-c2ccc(C)cc2)n[nH]1)c1ccc(OC)nc1
Ask: Number of molecules to sort: 3. Sort criterion: Ki, ascending. Would you mind listing the labels in the order asked for?
Result: c, a, b

[I] CCN(C(=O)c1cc2cc(OC)ccc2o1)c1ccc(OC)nc1
[II] COCCN(C(=O)c1cnc(-c2cccc(C)c2C)cn1)c1ccc(OC)nc1
Ask: Pick the one with the larger Ki: I vs II // caller expects the label of the chosen entry
Result: I
(I: 0.085 µM, II: 0.011 µM)

* * *

# TARGET UNDER TEST: Vasopressin V1a receptor (Homo sapiens, UniProt P37288)
# Sequence (P37288 whole entry): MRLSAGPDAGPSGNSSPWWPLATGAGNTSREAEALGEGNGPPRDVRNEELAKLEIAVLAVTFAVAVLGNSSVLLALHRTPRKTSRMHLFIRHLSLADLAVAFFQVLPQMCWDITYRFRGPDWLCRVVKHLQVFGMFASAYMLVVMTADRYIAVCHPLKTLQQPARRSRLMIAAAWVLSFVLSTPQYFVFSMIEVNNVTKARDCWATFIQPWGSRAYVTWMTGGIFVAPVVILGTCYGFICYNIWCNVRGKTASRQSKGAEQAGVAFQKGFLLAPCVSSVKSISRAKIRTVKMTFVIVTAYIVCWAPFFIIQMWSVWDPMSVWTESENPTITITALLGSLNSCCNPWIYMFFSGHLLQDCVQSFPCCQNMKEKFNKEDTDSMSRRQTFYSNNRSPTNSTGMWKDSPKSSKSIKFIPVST
# METHOD NOTES: Antagonist activity at human cloned vasopressin V1A receptor by cell based beta-lactamase reporter gene assay
MEASURE: Ki

// solved cases for Ki follow
{"SMILES REPRESENTATION": "COc1ccc(N(C)C(=O)c2cnc(-c3ccc(C#N)cc3C)cn2)cn1", "TARGET UNDER TEST": "Vasopressin V1a receptor (Homo sapiens, UniProt P37288)", "Ki": "> 10 µM"}
{"SMILES REPRESENTATION": "COc1ccc(N(C(=O)c2cnc(-c3cccc(C)c3C)cn2)C(C)C)cn1", "TARGET UNDER TEST": "Vasopressin V1a receptor (Homo sapiens, UniProt P37288)", "Ki": "> 10 µM"}

# evaluate next
Ask: Given the entry `COc1ccc(N(C(=O)c2cnc(-c3ccccc3C)cn2)C(C)C)cn1` , what Ki was observed with Vasopressin V1a receptor (Homo sapiens, UniProt P37288)?
Result: > 10 µM

* * *

Ki values for the molecules below.
# TARGET UNDER TEST: Vasopressin V2 receptor (Homo sapiens)
# METHOD NOTES: Antagonist activity at human cloned vasopressin V2 receptor by cell based beta-lactamase reporter gene assay
# Type: functional

// solved cases for Ki follow
{"SMILES REPRESENTATION": "COc1ccc(N(C(=O)c2cnc(-c3ccccc3C)cn2)C(C)C)cn1", "Ki": "> 10 µM"}
{"SMILES REPRESENTATION": "CCN(C(=O)c1cnc(-c2ccc(C#N)cc2C)cn1)c1ccc(OC)nc1", "Ki": "> 10 µM"}

Ask: Recorded Ki of `CCN(C(=O)c1cnc(-c2ccccc2C)cn1)c1ccc(OC)nc1` , please.
Result: > 10 µM
